Please respond with reported GI50 for every item in the list.
# Tested on: EKVX NSCLC
# protocolSummary: NCI tumour cell line growth inhibition, 48 h

• COc1cc(/C=C2\CN(S(=O)(=O)c3ccc(C)cc3)C/C(=C\c3cc(CN4CCCCC4)c(O)c(OC)c3)C2=O)cc(CN2CCCCC2)c1O = 1.98 µM
• COc1ccccc1N1CCN(C(=O)c2ccc(NS(=O)(=O)c3cccc4cccnc34)cc2)CC1 = > 100 µM
• CCOC(=O)c1c(C)[nH]c(/C=C2\N=C(c3ccc[nH]3)C=C2OC)c1C = 0.469 µM

For every item in the list below, what is its measured GI50?
1. O=C(Nc1ccc(Cl)cc1)c1cc2cc(F)ccc2cc1O
2. CC1OC(O[C@H]2/C=C/C=C/C=C/C=C/C=C/C=C/C=C/[C@H](C)[C@@H](O)[C@@H](C)[C@H](C)OC(=O)C[C@H](O)C[C@H](O)CC[C@@H](O)[C@H](O)C[C@H](O)C[C@]3(O)C[C@H](O)[C@@H](C(=O)O)[C@H](C2)O3)C(O)C(N)C1O (stereo not given in full)
3. O=C1C(Cl)=C(Nc2cccc(O)c2)C(=O)N1c1cccc(Cl)c1
4. N=C1C(c2nc3ccccc3s2)=C(O)CN1c1ccc(Cl)cc1Cl
5. O=S(=O)(NCCCNc1cc(-c2cn(-c3ccccc3)nc2-c2cccc(O)c2)ccn1)c1cccc2ccccc12
6. CC1(C)CCC2(C(=O)O)CC[C@]3(C)C(=CCC4C5(C)CC[C@H](OC6OC(C(=O)O)C(O)C(OC7OC(CO)C(O)C(O)C7O)C6OC6OC(CO)C(O)C(O)C6O)C(C)(C)C5CCC43C)C2C1 (stereo not given in full)
7. CCC(c1ccc(OC)cc1)C(CC)c1ccc(O)c(CN2CCCC2)c1 (stereo not given)

Output:
["2.62 µM", "11.1 µM", "> 100 µM", "29.9 µM", "3.99 µM", "> 100 µM", "5.07 µM"]

---

# Tested on: UO-31 renal
# protocolSummary: NCI tumour cell line growth inhibition, 48 h
attributeMeasured: TGI

• N#CC(N=Nc1ccccc1)c1nc2ccccc2o1 (centres undefined) = > 100 µM
• O=C1CCCCC[C@]12SC[C@H]1CON=C12 = > 100 µM
• O=C(NCCCCNCCCNC(=O)c1cc(-c2ccccc2)nc2ccccc12)c1cc(-c2ccccc2)nc2ccccc12 = 3.21 µM
• O=C(N/C(=C\c1ccc([N+](=O)[O-])cc1)c1nc2ccc(Cl)cc2[nH]1)c1ccccc1 = 33.5 µM
• COc1cc([C@@H]2c3cc4c(cc3[C@H](OC(C)=O)[C@H]3COC(=O)[C@H]23)OCO4)cc(OC)c1OC = > 100 µM

I have 2 molecules here; please give me TGI for each one.
1. O=C1c2cccc3cc([N+](=O)[O-])cc(c23)C(=O)N1CCN1CCCC1
2. O=C(O)CN(c1ccccc1)S(=O)(=O)c1ccc(Cl)cc1

Output:
1: 3.17 µM; 2: > 100 µM

---

# Tested on: MDA-MB-435
Please state which outcome applies, choosing from t = active, f = inactive

* O=c1ccccc(-c2ccc(-c3ccco3)cc2)c1O | f
* N=C1C(c2nc3ccccc3s2)=C(O)CN1c1ccc(Cl)cc1Cl | f

Input: Assay result, entry CCOC(=O)c1c(C)[nH]c(/C=C2\N=C(c3ccc[nH]3)C=C2OC)c1C — outcome?
Output: t

Input: Follow-up entry: COc1ccc(Cl)cc1NC(=O)c1c(NC(=O)C(F)(F)C(F)(F)F)sc2c1CCCCC2
Output: f

Input: What about COc1cccc(-c2nc(-c3ccc(NC(=O)c4ccccc4)cc3)[nH]c2-c2ccnc(Br)c2)c1 ?
Output: f

---

# Tested on: SNB-75 CNS
# protocolSummary: NCI tumour cell line growth inhibition, 48 h
attributeMeasured: TGI (µM)
One number for each entry, in µM.

- O=C1OC(C2OC(=O)c3cc(O)c(O)c(O)c3-c3c(O)c(O)c4oc(=O)c5c(c(O)c(O)c6oc(=O)c3c4c65)-c3c(cc(O)c(O)c3O)C(=O)OCC2O)C2OC(=O)c3c(c(O)c(O)c(O)c3[C@H]2O)-c2c1cc(O)c(O)c2O (some centres undefined): 63.7
- OCCN=C1c2ccccc2C2C(c3ccccc31)C1c3ccccc3C(=NCCO)c3ccccc3C21 (centres undefined): 65.9
- Clc1ccc2c(NCCNc3ccnc4cc(Cl)ccc34)ccnc2c1: 50.3
- O=C1/C(=C/c2ccccc2Br)COc2ccc(O)c(O)c21: 6.92

Consider now this further compound.
Input: Quick one: TGI for C/C(=N\O)c1cccc(Nc2nc3ccccc3c3occc23)c1 ?
Output: 32.3

---

# Tested on: OVCAR-3 ovarian
# protocolSummary: NCI tumour cell line growth inhibition, 48 h; in the data active means GI50 below about 0.43 µM; inactive means the rest
Your answer must be one of the following: active, inactive

Input: Given O=C1/C=C/[C@@H](O)[C@@H]2C[C@@H](O)C[C@H]2/C=C/CCC[C@H](CO)O1 , state the outcome it received in this test.
Output: inactive

---

# Test system: HCC-2998 colon
# protocolSummary: NCI tumour cell line growth inhibition, 48 h; in the data active = GI50 below about 0.43 µM; inactive = the rest
Valid outcomes are listed here; reply with one: active, inactive

Recorded results for 4 molecules are shown here.
* COC(=O)c1cc2c3c(cc(O)c2[nH]1)N(C(=O)C1Cc2cc(OC)c(OC)c(OC)c2N1)CC3CCl (stereo not given) | active
* COc1cc(C)[nH]c(=O)c1CN1CCc2c(Cl)cc([C@H](OC)C3COC3)c(Cl)c2C1=O | inactive
* COc1ccc(Cl)cc1NC(=O)c1c(NC(=O)C(F)(F)C(F)(F)F)sc2c1CCCCC2 | inactive
* Cc1ccc2c(N/N=C\c3ccco3)cc(C)nc2n1 | inactive

Below: the item to evaluate.
Input: How was CCCCNC(=O)Oc1ccc2c(=O)c3sc4c(=O)c5ccccc5c(=O)c4c3c(=O)c2c1 classified in this test?
Output: inactive

---

# Test system: SK-MEL-28 melanoma
# protocolSummary: NCI tumour cell line growth inhibition, 48 h
Please provide measured TGI for the entries that follow.

Solved entries (count: 2):
• COc1ccccc1N1CCN(C(=O)c2ccc(NS(=O)(=O)c3cccc4cccnc34)cc2)CC1 = > 100 µM
• Cc1ccc(C(=O)CCC2C(=O)CC(C)(C)CC2=O)cc1 = > 100 µM

Could you tell me TGI for each of these molecules? They are listed below.
1. C/C=C1\C(=O)O[C@@H]2C1C[C@@H]1O[C@H]2[C@H](C)CCC/C(C)=C/CC[C@@]1(C)O (stereo not given in full)
2. O=C(O)CN(c1ccccc1)S(=O)(=O)c1ccc(Cl)cc1
3. O=C1/C=C/[C@@H](O)[C@@H]2C[C@@H](O)C[C@H]2/C=C/CCC[C@H](CO)O1
4. O=C1/C(=C/c2cccs2)NC(=S)N1CN1CCOCC1
5. C=Cc1cc2c(cc1O)CC[C@@H]1[C@@H]2CC[C@]2(C)[C@@H](O)CC[C@@H]12
6. O=C(/C=C/c1cccs1)c1cccc(C(=O)/C=C/c2cccs2)n1
7. COc1ccc(C(C#N)NCCCCCCNC(C#N)c2ccc(OC)cc2)cc1 (stereo not given)

Output:
21.9 µM
> 100 µM
3.65 µM
> 100 µM
16.7 µM
> 100 µM
> 100 µM

Input: Consider the molecule shown here: CC1=C(C(=O)Nc2ccccc2)C(c2ccc(C)o2)C(C#N)=C(SCc2ccccc2)N1 (stereo not given) What is its recorded TGI?
Output: > 100 µM

---

# System: UACC-257 melanoma
# protocolSummary: NCI tumour cell line growth inhibition, 48 h
attributeMeasured: TGI

* COc1c(B(O)O)cccc1-c1nc2c(F)cc3[nH]ncc3c2c2c1CCCC2 | 24 µM
* NCC1OC(n2cnc3c(=O)[nH]c(N)nc32)C(O)C1O (stereo unspecified) | > 100 µM
* CCOC(=O)/C(C#N)=C\C=C1/C=CNC2=NCCN21 | > 100 µM
* Nc1nc(N)c2nc(-c3ccco3)cnc2n1 | > 100 µM
* Cc1ccc2cccc3c2c1CC1(C3=O)S(=O)(=O)OCCOS1(=O)=O | > 100 µM

Batch request: TGI for each of the following compounds.
1. O=C1CCCCC[C@]12SC[C@H]1CON=C12
2. COc1cccc(-c2nc(-c3ccc(NC(=O)c4ccccc4)cc3)[nH]c2-c2ccnc(Br)c2)c1
3. O=C1NC(=O)C(=O)C(c2nc3ccccc3s2)C1=O
4. Cc1ccc(Nc2nc(=O)[nH]c(=O)[nH]2)cc1N=[N+]=[N-]
5. O=C(/C=C/c1cccs1)c1cccc(C(=O)/C=C/c2cccs2)n1
6. N#C/C(=C/C=C/c1ccccc1)S(=O)c1ccccc1 (stereo unspecified)

Output:
["> 100 µM", "> 100 µM", "> 100 µM", "> 100 µM", "> 100 µM", "2.41 µM"]

Cited source: PubChem BioAssay (NCI)
